Biological target: Tyrosine-protein phosphatase non-receptor type 1 (Homo sapiens, UniProt P18031)
Assay: Inhibition of recombinant PTP1B (unknown origin) using pNPP as substrate relative to control
Here the recorded IC50 is given for each entry.
Observed property: IC50 (µM)

>>> experimental_value("CC(C)=CCC[C@@H](C)[C@H]1C2=C(C(=O)OC2)[C@H]2C[C@H]2[C@H](C)C[C@H]1O")
7.3
>>> experimental_value("CC(=O)O[C@@H]1C[C@@H](C)[C@@H]2C[C@@H]2C2=C(CNC2=O)[C@@H]1[C@H](C)CCC=C(C)C")
13
>>> experimental_value("CCO[C@@H]1C/C=C(\\C)CC[C@@H]([C@H](C)CCC=C(C)C)C2=C1C(=O)N[C@H]2O")
9.5
>>> experimental_value("CC(=O)O[C@@H]1C[C@@H](C)[C@@H]2C[C@@H]2C2=C(C(=O)NC2)[C@@H]1[C@H](C)CCC=C(C)C")
19

---

Below, each entry is listed with its recorded inhibition.
Target: Tyrosine-protein phosphatase non-receptor type 1 (Homo sapiens) (UniProt P18031)
Sequence (P18031 whole entry): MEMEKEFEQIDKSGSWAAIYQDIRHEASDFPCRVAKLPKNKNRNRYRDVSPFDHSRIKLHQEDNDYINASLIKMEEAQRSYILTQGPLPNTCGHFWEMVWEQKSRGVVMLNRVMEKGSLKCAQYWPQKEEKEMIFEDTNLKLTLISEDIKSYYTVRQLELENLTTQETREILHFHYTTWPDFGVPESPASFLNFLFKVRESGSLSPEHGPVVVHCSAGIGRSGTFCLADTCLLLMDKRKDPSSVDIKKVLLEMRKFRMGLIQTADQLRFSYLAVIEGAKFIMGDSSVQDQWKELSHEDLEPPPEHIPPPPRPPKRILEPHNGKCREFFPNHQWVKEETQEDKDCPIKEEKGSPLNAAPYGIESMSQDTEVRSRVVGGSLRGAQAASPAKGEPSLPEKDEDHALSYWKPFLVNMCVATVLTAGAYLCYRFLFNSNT
Test: Inhibition of recombinant PTP1B (unknown origin) using pNPP as substrate at 20 uM relative to control
Observed property: inhibition (%)

>>> experimental_value("CC(=O)O[C@@H]1C[C@@H](C)[C@@H]2C[C@@H]2C2=C(CNC2=O)[C@@H]1[C@H](C)CCC=C(C)C")
73
>>> experimental_value("CCO[C@@H]1C/C=C(\\C)CC[C@@H]([C@H](C)CCC=C(C)C)C2=C1C(=O)N[C@H]2O")
81
>>> experimental_value("CC(C)=CCC[C@@H](C)[C@H]1C2=C(C(=O)OC2)[C@H]2C[C@H]2[C@H](C)C[C@H]1O")
86
>>> experimental_value("C=C(C)C(=O)CC[C@@H](C)[C@H]1C2=C(CNC2=O)[C@H]2C[C@H]2[C@H](C)C[C@H]1OC(C)=O")
47
>>> experimental_value("CCO[C@@H]1C/C=C(\\C)CC[C@@H]([C@H](C)CCC=C(C)C)C2=C1C(=O)N[C@@H]2O")
38
>>> experimental_value("CC(C)=CCC[C@@H](C)[C@H]1C2=C(C(=O)NC2)[C@H]2C[C@H]2[C@H](C)C[C@H]1O")
40
>>> experimental_value("CC(=O)O[C@@H]1C[C@@H](C)[C@@H]2C[C@@H]2C2=C(C(=O)NC2)[C@@H]1[C@H](C)CCC=C(C)C")
52
